Every entry's value here was drawn from PubChem BioAssay (NCI).

# log10 TGI values compiled below
# System: MDA-MB-231 breast
# test_details: NCI tumour cell line growth inhibition, 48 h
Please be aware that the numbers have been log10-transformed from TGI in µM.

> print(dat)
                                   compound  assay.result
1  c1ccc(CN2CCN3CCN(CC2)CCN(Cc2ccccc2)CC3)cc1          1.26

stdin: Quick one: log10 TGI for Cc1ccc([C@]2(C)CC[C@H](C)/C2=C\Br)c(O)c1 ?
stdout: 1.16

stdin: Would you kindly repeat that for C=CC(COC(c1ccccc1)(c1ccccc1)c1ccccc1)N(CC)CC (stereo unspecified) ?
stdout: 1.13

stdin: Follow-up item: Oc1ccc(Cc2cc(Cl)cc(Cl)c2O)cc1Cl
stdout: 1.54

stdin: # repeat for COC(=O)C(C)NC(=O)c1ccccc1I(OS(=O)(=O)C(F)(F)F)c1ccccc1 (stereo unspecified)
stdout: 1.54

stdin: Entry O=C(CSc1nc2ccccc2c(=O)n1-c1ccccc1)N=Nc1c(O)[nH]c2ccc(F)cc12 please
stdout: 0.68

stdin: Another compound to check: C=C1C(=O)O[C@H]2[C@H]1CC/C(COC(=O)NCc1ccc(Cn3c(=O)sn(-c4ccccc4)c3=O)cc1)=C\CC[C@@]1(C)O[C@@H]21
stdout: 0.55
